Tested on: C6
Test Method Notes: Neuroprotective activity in rat C6 cells assessed as NGF secretion at 20 uM incubated for 24 hrs by ELISA relative to control
Type: functional
Let's look at some compounds and their measured Activity.
Provide only the numeric value, understood in %.

C=C1CC[C@@H]2[C@](C)(CC[C@H](O)[C@]2(C)C(=O)O[C@@H]2O[C@H](CO)[C@@H](O)[C@H](O)[C@H]2O)[C@H]1CCC1=CCOC1=O: 134.7
C=C1C[C@H](O)[C@@H]2[C@](C)(CCC[C@]2(C)C(=O)O[C@@H]2O[C@H](CO)[C@@H](O)[C@H](O)[C@H]2O)[C@H]1CCC1=CCOC1=O: 128.7
C[C@]12CCC[C@](C)(C(=O)O[C@@H]3O[C@H](CO)[C@@H](O)[C@H](O)[C@H]3O)[C@@H]1CC=C(CO)[C@@H]2CCC1=CCOC1=O: 119.4
C[C@]12CCC[C@](C)(C(=O)O[C@@H]3O[C@H](CO)[C@@H](O)[C@H](O)[C@H]3O)[C@@H]1CC[C@@](C)(O)[C@@H]2CCC1=CCOC1=O: 84.5
C=C1CC[C@@H]2[C@](C)(CCC[C@]2(C)C(=O)O[C@@H]2O[C@H](CO)[C@@H](O)[C@H](O)[C@H]2O)[C@H]1CC/C(=C/CO)CO: 105.4

// query Give the reported value of Activity for this record: C=C1CC[C@@H]2[C@](C)(CCC[C@]2(C)C(=O)O[C@@H]2O[C@H](CO)[C@@H](O)[C@H](O)[C@H]2O)[C@H]1CC/C(=C\CO)CO
// result 162.3

// query Give the reported value of Activity for this record: C=C1CC[C@@H]2[C@](C)(CC[C@@H](O)[C@]2(C)C(=O)O[C@@H]2O[C@H](CO)[C@@H](O)[C@H](O)[C@H]2O)[C@H]1CCC1=CCOC1=O
// result 106.6

// query Give the reported value of Activity for this record: C=C1CC[C@@H]2[C@](C)(CCC[C@]2(C)C(=O)O[C@@H]2O[C@H](CO)[C@@H](O)[C@H](O)[C@H]2O)[C@H]1CCC1=CC(=O)OC1
// result 162.7

###

Test Method Notes: Cytotoxicity against mouse BV2 cells assessed as cell viability at 20 uM by MTT assay relative to control
Format: cell-based, BV-2
Protocol Conditions: read-out: Activity
Measured Quantity: viability at 20 µM (%)
Provide only the numeric value, understood in %.

C=C1CC[C@@H]2[C@](C)(CCC[C@]2(C)C(=O)O[C@@H]2O[C@H](CO)[C@@H](O)[C@H](O)[C@H]2O)[C@H]1CCC1=CC(=O)OC1: 107
C[C@]12CCC[C@](C)(C(=O)O[C@@H]3O[C@H](CO)[C@@H](O)[C@H](O)[C@H]3O)[C@@H]1CC=C(CO)[C@@H]2CCC1=CCOC1=O: 87.7

// query Give the reported value of viability at 20 µM for this record: C=C1C[C@H](O)[C@@H]2[C@](C)(CCC[C@]2(C)C(=O)O[C@@H]2O[C@H](CO)[C@@H](O)[C@H](O)[C@H]2O)[C@H]1CCC1=CCOC1=O
// result 99.7

// query Give the reported value of viability at 20 µM for this record: C=C1CC[C@@H]2[C@](C)(CCC[C@]2(O)C(=O)O[C@@H]2O[C@H](CO)[C@@H](O)[C@H](O)[C@H]2O)[C@H]1CCC1=CCOC1=O
// result 80.7

// query Give the reported value of viability at 20 µM for this record: C=C1CC[C@@H]2[C@](C)(CC[C@H](O)[C@]2(C)C(=O)O[C@@H]2O[C@H](CO)[C@@H](O)[C@H](O)[C@H]2O)[C@H]1CCC1=CCOC1=O
// result 91.3

// query Give the reported value of viability at 20 µM for this record: C[C@]12CCC[C@](C)(C(=O)O[C@@H]3O[C@H](CO)[C@@H](O)[C@H](O)[C@H]3O)[C@@H]1CC[C@](C)(O)[C@@H]2CCC1=CCOC1=O
// result 89.6

// query Give the reported value of viability at 20 µM for this record: C=C1CC[C@@H]2[C@](C)(CCC[C@]2(C)C(=O)O[C@@H]2O[C@H](CO)[C@@H](O)[C@H](O)[C@H]2O)[C@H]1CC/C(=C/CO)CO
// result 133

// query Give the reported value of viability at 20 µM for this record: C=C1CC[C@@H]2[C@](C)(CCC[C@]2(C)C(=O)O[C@@H]2O[C@H](CO)[C@@H](O)[C@H](O)[C@H]2O)[C@H]1CCC1=CCOC1=O
// result 92.1

// query Give the reported value of viability at 20 µM for this record: C=C1CC[C@@H]2[C@](C)(CC[C@@H](O)[C@]2(C)C(=O)O[C@@H]2O[C@H](CO)[C@@H](O)[C@H](O)[C@H]2O)[C@H]1CCC1=CCOC1=O
// result 77.5

// query Give the reported value of viability at 20 µM for this record: CNC(=N)NCCC[C@H](N)C(=O)O [TILARGININE]
// result 99.2

// query Give the reported value of viability at 20 µM for this record: C=C1CC[C@@H]2[C@](C)(CCC[C@]2(C)C(=O)O[C@@H]2O[C@H](CO)[C@@H](O)[C@H](O)[C@H]2O)[C@H]1CC/C(=C\CO)CO
// result 135

// query Give the reported value of viability at 20 µM for this record: C[C@]12CCC[C@](C)(C(=O)O[C@@H]3O[C@H](CO)[C@@H](O)[C@H](O)[C@H]3O)[C@@H]1CC[C@@](C)(O)[C@@H]2CCC1=CCOC1=O
// result 70.4

###

Test Method Notes: Cytotoxicity against rat C6 cells assessed as cell viability at 20 uM by MTT assay relative to control
Type: cell-based
Protocol Conditions: read-out: Activity
Let's look at some molecules and their measured viability at 20 µM.
Provide only the numeric value, understood in %.

Please review the following examples before continuing.
C=C1C[C@H](O)[C@@H]2[C@](C)(CCC[C@]2(C)C(=O)O[C@@H]2O[C@H](CO)[C@@H](O)[C@H](O)[C@H]2O)[C@H]1CCC1=CCOC1=O: 101
C[C@]12CCC[C@](C)(C(=O)O[C@@H]3O[C@H](CO)[C@@H](O)[C@H](O)[C@H]3O)[C@@H]1CC[C@@](C)(O)[C@@H]2CCC1=CCOC1=O: 111
C=C1CC[C@@H]2[C@](C)(CCC[C@]2(C)C(=O)O[C@@H]2O[C@H](CO)[C@@H](O)[C@H](O)[C@H]2O)[C@H]1CC/C(=C\CO)CO: 104

// query Give the reported value of viability at 20 µM for this record: C=C1CC[C@@H]2[C@](C)(CC[C@@H](O)[C@]2(C)C(=O)O[C@@H]2O[C@H](CO)[C@@H](O)[C@H](O)[C@H]2O)[C@H]1CCC1=CCOC1=O
// result 92.8

// query Give the reported value of viability at 20 µM for this record: C=C1CC[C@@H]2[C@](C)(CC[C@H](O)[C@]2(C)C(=O)O[C@@H]2O[C@H](CO)[C@@H](O)[C@H](O)[C@H]2O)[C@H]1CCC1=CCOC1=O
// result 98.3

// query Give the reported value of viability at 20 µM for this record: C[C@]12CCC[C@](C)(C(=O)O[C@@H]3O[C@H](CO)[C@@H](O)[C@H](O)[C@H]3O)[C@@H]1CC=C(CO)[C@@H]2CCC1=CCOC1=O
// result 102

// query Give the reported value of viability at 20 µM for this record: C=C1CC[C@@H]2[C@](C)(CCC[C@]2(O)C(=O)O[C@@H]2O[C@H](CO)[C@@H](O)[C@H](O)[C@H]2O)[C@H]1CCC1=CCOC1=O
// result 76

// query Give the reported value of viability at 20 µM for this record: C=C1CC[C@@H]2[C@](C)(CCC[C@]2(C)C(=O)O[C@@H]2O[C@H](CO)[C@@H](O)[C@H](O)[C@H]2O)[C@H]1CCC1=CC(=O)OC1
// result 105

// query Give the reported value of viability at 20 µM for this record: C[C@]12CCC[C@](C)(C(=O)O[C@@H]3O[C@H](CO)[C@@H](O)[C@H](O)[C@H]3O)[C@@H]1CC[C@](C)(O)[C@@H]2CCC1=CCOC1=O
// result 94.2

// query Give the reported value of viability at 20 µM for this record: C=C1CC[C@@H]2[C@](C)(CCC[C@]2(C)C(=O)O[C@@H]2O[C@H](CO)[C@@H](O)[C@H](O)[C@H]2O)[C@H]1CCC1=CCOC1=O
// result 101

// query Give the reported value of viability at 20 µM for this record: C=C1CC[C@@H]2[C@](C)(CCC[C@]2(C)C(=O)O[C@@H]2O[C@H](CO)[C@@H](O)[C@H](O)[C@H]2O)[C@H]1CC/C(=C/CO)CO
// result 86.5
